# subjectOfTest: Discoidin domain-containing receptor 2 (Homo sapiens, UniProt Q16832)
# Sequence (Q16832 whole entry, the tested form may be a part): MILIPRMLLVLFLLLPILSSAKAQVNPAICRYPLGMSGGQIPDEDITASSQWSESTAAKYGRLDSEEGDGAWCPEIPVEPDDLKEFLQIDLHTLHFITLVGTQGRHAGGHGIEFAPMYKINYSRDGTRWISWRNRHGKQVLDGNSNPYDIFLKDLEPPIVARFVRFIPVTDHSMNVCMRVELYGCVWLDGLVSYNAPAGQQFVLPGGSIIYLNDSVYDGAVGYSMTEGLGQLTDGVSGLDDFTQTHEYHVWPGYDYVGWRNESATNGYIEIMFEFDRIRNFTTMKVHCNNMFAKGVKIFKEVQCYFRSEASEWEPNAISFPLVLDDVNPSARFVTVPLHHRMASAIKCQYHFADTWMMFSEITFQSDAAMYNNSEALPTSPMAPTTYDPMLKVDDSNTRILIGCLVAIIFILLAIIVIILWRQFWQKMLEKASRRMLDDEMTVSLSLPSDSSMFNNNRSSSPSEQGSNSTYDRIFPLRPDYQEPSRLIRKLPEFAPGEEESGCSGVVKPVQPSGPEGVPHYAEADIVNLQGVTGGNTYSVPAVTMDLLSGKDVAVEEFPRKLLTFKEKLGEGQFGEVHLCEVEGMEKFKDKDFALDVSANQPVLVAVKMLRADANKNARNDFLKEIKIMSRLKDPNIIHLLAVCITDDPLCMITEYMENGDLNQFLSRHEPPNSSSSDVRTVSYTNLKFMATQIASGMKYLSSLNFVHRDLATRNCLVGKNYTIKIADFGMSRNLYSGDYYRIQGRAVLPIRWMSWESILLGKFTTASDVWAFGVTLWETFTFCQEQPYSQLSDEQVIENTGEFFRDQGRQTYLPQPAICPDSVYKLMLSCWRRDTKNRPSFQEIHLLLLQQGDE
Calls of active or inactive are those of the source.
Respond only with the outcome that fits, drawn from active, inactive

Challenge: // outcome(item) with item = O=C1NC(=O)[C@@H](c2cn3c4c(cccc24)CCC3)[C@@H]1c1c[nH]c2ccccc12 [TIVANTINIB]
Response given: inactive

Challenge: Next: C=CC(=O)Nc1cc2c(Nc3ccc(F)c(Cl)c3)ncnc2cc1C#CC(C)(C)N1CCN(C)CC1 [AV-412 FREE BASE]
Response given: inactive

Challenge: Next: COc1cc2c(Nc3ccc(Cl)c(Cl)c3F)ncnc2cc1OC[C@@H]1C[C@@H]2CN(C)C[C@@H]2C1 [TESEVATINIB]
Response given: active

Challenge: Next: CN1C/C=C/CCOc2cccc(c2)-c2ccnc(n2)Nc2cccc(c2)C1 [ZOTIRACICLIB]
Response given: inactive

Challenge: Next: O=C(Nc1cc(C(F)(F)F)cc(C(F)(F)F)c1)c1cc(Cl)ccc1O [IMD-0354]
Response given: inactive

###

# subjectOfTest: Adenine phosphoribosyltransferase (Homo sapiens, UniProt P07741)
# Sequence (P07741 whole entry): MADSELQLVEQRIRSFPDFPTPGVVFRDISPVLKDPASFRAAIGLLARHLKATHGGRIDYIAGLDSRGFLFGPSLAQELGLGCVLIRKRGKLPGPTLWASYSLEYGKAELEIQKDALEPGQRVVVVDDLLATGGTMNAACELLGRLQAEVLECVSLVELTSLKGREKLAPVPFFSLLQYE
The source made the active and inactive calls.
measurementKind: Kd

Challenge: I'm curious: which Kd was measured for `Cc1nc(Nc2n[nH]c3c2CN(C(=O)N[C@H](CN(C)C)c2ccccc2)C3(C)C)c2sccc2n1` tested on Adenine phosphoribosyltransferase (Homo sapiens, UniProt P07741)?; note: in the data inactive means no Kd found up to 30 µM
Response given: > 30 µM (inactive)

Challenge: Next: `Cn1cc(-c2cnn3c(N)c(Br)c([C@@H]4CCCNC4)nc23)cn1`
Response given: > 30 µM (inactive)

Challenge: Next: `CC(C)(C)c1nc(-c2cccc(NS(=O)(=O)c3c(F)cccc3F)c2F)c(-c2ccnc(N)n2)s1`
Response given: > 30 µM (inactive)

Challenge: Next: `COc1cc([C@@H]2c3cc4c(cc3[C@H](O)[C@H]3COC(=O)[C@@H]23)OCO4)cc(OC)c1OC`
Response given: > 30 µM (inactive)

Challenge: Next: `O=C(Cc1ccc(-c2ccc(OCCN3CCOCC3)cc2)cn1)NCc1ccccc1`
Response given: > 30 µM (inactive)

Challenge: Next: `C=CC(=O)N1CCC[C@H](n2c(=O)n(-c3ccc(Oc4ccccc4)cc3)c3c(N)ncnc32)C1`
Response given: > 30 µM (inactive)

Challenge: Next: `Cc1nc2cc(-c3nn(C(C)C)c4ncnc(N)c34)ccc2o1`
Response given: > 30 µM (inactive)

Challenge: Next: `O=C(NOCCO)c1cc(CN2OCCCC2=O)c(F)c(F)c1Nc1ccc(I)cc1F`
Response given: > 30 µM (inactive)

Challenge: Next: `C[C@@H](N)c1ccc(C(=O)Nc2ccnc3[nH]ccc23)cc1`
Response given: > 30 µM (inactive)

Challenge: Next: `NC(=O)Nc1cc(-c2cccc(F)c2)sc1C(=O)N[C@H]1CCCNC1`
Response given: > 30 µM (inactive)

Challenge: Next: `CO[C@H]1C[C@@H]2CC[C@@H](C)[C@@](O)(O2)C(=O)C(=O)N2CCCC[C@H]2C(=O)O[C@H]([C@H](C)C[C@@H]2CC[C@@H](OC(=O)C(C)(CO)CO)[C@H](OC)C2)CC(=O)[C@H](C)/C=C(\C)[C@@H](O)[C@@H](OC)C(=O)[C@H](C)C[C@H](C)/C=C/C=C/C=C/1C`
Response given: > 30 µM (inactive)

Challenge: Next: `CNC(=O)c1ccccc1Sc1ccc2c(/C=C/c3ccccn3)n[nH]c2c1`
Response given: > 30 µM (inactive)

Challenge: Next: `CN1C/C=C/CCOc2cccc(c2)-c2ccnc(n2)Nc2cccc(c2)C1`
Response given: > 30 µM (inactive)
